system_name: M.SssI (Spiroplasma monobiae, UniProt P15840)
Sequence (P15840 whole entry): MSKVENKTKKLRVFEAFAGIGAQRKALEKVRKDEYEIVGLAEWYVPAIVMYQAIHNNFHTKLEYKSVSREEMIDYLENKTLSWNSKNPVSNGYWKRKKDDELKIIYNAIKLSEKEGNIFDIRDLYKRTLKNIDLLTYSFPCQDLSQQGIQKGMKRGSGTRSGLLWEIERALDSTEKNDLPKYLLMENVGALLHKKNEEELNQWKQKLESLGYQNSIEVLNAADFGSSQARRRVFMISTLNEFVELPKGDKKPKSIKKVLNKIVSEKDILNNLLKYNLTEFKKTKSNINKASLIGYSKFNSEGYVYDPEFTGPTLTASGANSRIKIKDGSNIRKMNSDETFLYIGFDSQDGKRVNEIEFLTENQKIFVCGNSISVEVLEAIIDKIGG
method_description: padlock probe/RCA fluorescence methyltransferase activity assay with commercial M.SssI ([…] U/mL)
observed_property: pIC50
# pIC50 is unitless: minus log10 of the molar concentration; print number only

# compound, number
rows = [
    ("O=c1[nH]cc(F)c(=O)[nH]1 [5-F, 5-fluorouracil]", 5.05),
]

Now let's try a different one.
Task: Give pIC50 (M.SssI (Spiroplasma monobiae, UniProt P15840)) of the following compound: Nc1ncn([C@@H]2O[C@H](CO)[C@@H](O)[C@H]2O)c(=O)n1 [5-Aza, 5-Azacytidine]
Result: 5.31

Source of measurements: paper PMC9332213
